- studySystem: recombinant human cGAS enzyme (hcGAS-ΔN, residues 147–522) (Homo sapiens)
- Construct: N-terminally truncated human cGAS (hcGAS-ΔN, residues 147–522); 6xHis-SUMO (N, cleaved yes); made in house; host or cells: Escherichia coli BL21 (DE3)
- Sequence (Q8N884 147-522, stated change not applied): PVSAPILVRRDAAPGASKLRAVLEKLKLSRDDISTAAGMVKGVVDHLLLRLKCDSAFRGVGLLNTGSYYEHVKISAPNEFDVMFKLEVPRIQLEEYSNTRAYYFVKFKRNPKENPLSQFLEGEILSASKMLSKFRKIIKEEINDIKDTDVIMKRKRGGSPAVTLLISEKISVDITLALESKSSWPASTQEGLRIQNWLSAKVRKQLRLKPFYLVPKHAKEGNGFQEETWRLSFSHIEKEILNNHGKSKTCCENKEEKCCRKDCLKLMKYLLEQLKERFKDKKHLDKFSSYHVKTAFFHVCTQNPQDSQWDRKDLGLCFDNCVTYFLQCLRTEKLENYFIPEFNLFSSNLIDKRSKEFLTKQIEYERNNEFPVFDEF
- testSummary: RNA-based fluorescent biosensor assay of cGAS activity (2',3'-cGAMP formation), in vitro screening
- Format: biochemical
- reportedConditions: peptides screened at 20 μM; Supplementary Table 1 / Fig. S5b; read-out: Inhibition %
Square brackets hold non-standard residues; d marks the D form. Peptide text beside a SMILES is read from it.
measurementKind: inhibition at 20 µM

- CC(C)C[C@@H]1NC(=O)[C@H](CCCNC(=N)N)NC(=O)[C@H](C(C)C)NC(=O)[C@@H]2CCCN2C(=O)[C@@H](Cc2ccccc2)NC(=O)[C@H](CC(C)C)NC(=O)[C@H](CCCNC(=N)N)NC(=O)[C@H](CC(C)C)NC(=O)[C@@H]2CCCN2C(=O)[C@@H](Cc2ccccc2)NC1=O [XQ54, Cyclo (LfPLRLfPVR)] (cyclo(LRL[dF]PVRL[dF]P)): 0%
- CC(C)C[C@@H]1NC(=O)[C@H](CCCNC(=N)N)NC(=O)[C@H](C(C)C)NC(=O)[C@H](CC(C)C)NC(=O)[C@@H](Cc2ccccc2)NC(=O)[C@H](C)NC(=O)[C@H](CCCNC(=N)N)NC(=O)[C@H](C(C)C)NC(=O)[C@@H]2CCCN2C(=O)[C@@H](Cc2ccccc2)NC1=O [XQ48, Cyclo (AfLVRLfPVR)] (cyclo(A[dF]LVRL[dF]PVR)): 0%
- CC(C)C[C@@H]1NC(=O)[C@H](CCCNC(=N)N)NC(=O)[C@H](C(C)C)NC(=O)[C@H](C)NC(=O)[C@@H](Cc2ccccc2)NC(=O)[C@H](C)NC(=O)[C@H](CC(=O)O)NC(=O)[C@H](C(C)C)NC(=O)[C@@H]2CCCN2C(=O)[C@@H](Cc2ccccc2)NC1=O [XQ57, Cyclo (LfPVDAfAVR)] (cyclo(AVRL[dF]PVDA[dF])): 0%
- CC(C)C[C@@H]1NC(=O)[C@H](CC(=O)O)NC(=O)[C@H](C(C)C)NC(=O)[C@@H]2CCCN2C(=O)[C@@H](Cc2ccccc2)NC(=O)[C@H](CC(C)C)NC(=O)[C@H](CCCNC(=N)N)NC(=O)[C@H](C(C)C)NC(=O)[C@@H]2CCCN2C(=O)[C@@H](Cc2ccccc2)NC1=O [XQ60, Cyclo (LfPVDLfPVR)] (cyclo(DL[dF]PVRL[dF]PV)): 0%

Entry CC(C)C[C@@H]1NC(=O)[C@H](CCCNC(=N)N)NC(=O)[C@H](C(C)C)NC(=O)[C@@H]2CCCN2C(=O)[C@@H](Cc2ccccc2)NC(=O)[C@H](C)NC(=O)[C@H](CCCNC(=N)N)NC(=O)[C@H](C(C)C)NC(=O)[C@H](C)NC(=O)[C@@H](Cc2ccccc2)NC1=O [XQ19, Cyclo (AfPVRLfAVR)] (cyclo(AVRA[dF]PVRL[dF])) : reported inhibition at 20 µM = ?
60%

Quick one: inhibition at 20 µM for CC(C)C[C@@H]1NC(=O)[C@H](CCCNC(=N)N)NC(=O)[C@H]([C@@H](C)O)NC(=O)[C@@H]2CCCN2C(=O)[C@@H](Cc2ccccc2)NC(=O)[C@H](CC(C)C)NC(=O)[C@H](CCCNC(=N)N)NC(=O)[C@H](C)NC(=O)[C@@H]2CCCN2C(=O)[C@@H](Cc2ccccc2)NC1=O [XQ36, Cyclo (LfPARLfPTR)] (cyclo(ARL[dF]PTRL[dF]P)) ?
11%

Recorded values, source paper PMC10545747.
